Entry source: ChEMBL document CHEMBL3603732

Recorded log10(IC50), one value per entry.
# SUBJECT_OF_TEST: Acetylcholinesterase (Homo sapiens, UniProt P22303)
# Sequence (P22303 whole entry): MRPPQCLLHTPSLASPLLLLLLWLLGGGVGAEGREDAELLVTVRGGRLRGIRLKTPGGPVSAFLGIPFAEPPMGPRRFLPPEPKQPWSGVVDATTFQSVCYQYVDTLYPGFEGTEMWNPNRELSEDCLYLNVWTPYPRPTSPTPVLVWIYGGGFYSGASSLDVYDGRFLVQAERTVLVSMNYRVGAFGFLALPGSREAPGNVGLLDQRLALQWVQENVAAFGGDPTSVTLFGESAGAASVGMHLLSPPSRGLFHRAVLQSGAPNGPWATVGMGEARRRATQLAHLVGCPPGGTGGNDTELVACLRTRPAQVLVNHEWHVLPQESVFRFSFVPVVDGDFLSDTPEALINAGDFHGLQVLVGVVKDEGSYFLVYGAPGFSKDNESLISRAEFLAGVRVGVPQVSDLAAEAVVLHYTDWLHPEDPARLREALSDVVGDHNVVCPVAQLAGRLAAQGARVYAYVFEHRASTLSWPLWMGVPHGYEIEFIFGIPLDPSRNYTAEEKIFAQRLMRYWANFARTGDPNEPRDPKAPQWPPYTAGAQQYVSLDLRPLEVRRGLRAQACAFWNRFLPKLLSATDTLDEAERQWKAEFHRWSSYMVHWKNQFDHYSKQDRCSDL
# EXPERIMENTAL_PROTOCOL: biochemical
# Description: Inhibition of acetylcholinesterase in human erythrocytes using acetylthiocholine iodide substrate by spectrophotometric Ellman's method
OBSERVABLE: log10(IC50) (log10 of the value in nM)

chem_smiles=CN(C)c1ccc(C(=O)NCCCNc2c3c(nc4ccccc24)CCCC3)cc1 endpoint_result=1.28
chem_smiles=CN(C)c1ccc(C(=O)NCCCCCCNc2c3c(nc4ccccc24)CCCC3)cc1 endpoint_result=1.81
chem_smiles=CN(C)c1ccc(C(=O)NCCCCCCCCNc2c3c(nc4ccccc24)CCCC3)cc1 endpoint_result=1.89
chem_smiles=CN(C)c1ccc(C(=O)NCCCCCCCCCNc2c3c(nc4ccccc24)CCCC3)cc1 endpoint_result=2.10
chem_smiles=CN(C)c1ccc(C(=O)NCCNc2c3c(nc4ccccc24)CCCC3)cc1 endpoint_result=2.15
chem_smiles=CN(C)c1ccc(C(=O)NCCCCCNc2c3c(nc4ccccc24)CCCC3)cc1 endpoint_result=2.55
chem_smiles=CN(C)c1ccc(C(=O)NCCCCNc2c3c(nc4ccccc24)CCCC3)cc1 endpoint_result=2.47
chem_smiles=CN(C)c1ccc(C(=O)NCCCCCCCNc2c3c(nc4ccccc24)CCCC3)cc1 endpoint_result=1.88

====

Catalogue of pIC50 readings, one per entry.
# SUBJECT_OF_TEST: Acetylcholinesterase (Electrophorus electricus)
# Sequence (O42275 whole entry): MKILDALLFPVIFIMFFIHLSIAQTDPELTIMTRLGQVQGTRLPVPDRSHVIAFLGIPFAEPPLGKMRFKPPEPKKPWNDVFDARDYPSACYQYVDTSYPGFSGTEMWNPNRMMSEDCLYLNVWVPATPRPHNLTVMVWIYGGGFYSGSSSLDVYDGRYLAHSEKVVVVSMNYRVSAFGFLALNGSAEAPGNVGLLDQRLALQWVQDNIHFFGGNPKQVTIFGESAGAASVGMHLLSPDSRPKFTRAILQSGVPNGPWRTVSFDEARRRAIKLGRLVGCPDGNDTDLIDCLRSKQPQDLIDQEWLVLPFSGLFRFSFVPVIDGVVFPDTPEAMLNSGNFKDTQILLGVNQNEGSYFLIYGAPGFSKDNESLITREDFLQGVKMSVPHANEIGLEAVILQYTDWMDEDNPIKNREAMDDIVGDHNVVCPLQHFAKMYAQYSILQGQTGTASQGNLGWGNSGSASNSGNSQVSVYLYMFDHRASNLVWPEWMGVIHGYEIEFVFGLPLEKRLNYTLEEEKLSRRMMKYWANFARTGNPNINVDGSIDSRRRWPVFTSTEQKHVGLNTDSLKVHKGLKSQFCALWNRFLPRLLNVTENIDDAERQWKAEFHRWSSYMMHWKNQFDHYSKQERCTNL
pIC50: −log10 of the molar value.
OBSERVABLE: pIC50

chem_smiles=CN(C)c1ccc(C(=O)NCCNc2c3c(nc4ccccc24)CCCC3)cc1 endpoint_result=9.40
chem_smiles=CN(C)c1ccc(C(=O)NCCCNc2c3c(nc4ccccc24)CCCC3)cc1 endpoint_result=6.70
chem_smiles=CN(C)c1ccc(C(=O)NCCCCNc2c3c(nc4ccccc24)CCCC3)cc1 endpoint_result=6.70
chem_smiles=CN(C)c1ccc(C(=O)NCCCCCCCCNc2c3c(nc4ccccc24)CCCC3)cc1 endpoint_result=9.30
chem_smiles=CN(C)c1ccc(C(=O)NCCCCCNc2c3c(nc4ccccc24)CCCC3)cc1 endpoint_result=7.06

====

Heads up, these compounds all have IC50 values measured for UniProt:P81908.
Sequence (P81908 whole entry): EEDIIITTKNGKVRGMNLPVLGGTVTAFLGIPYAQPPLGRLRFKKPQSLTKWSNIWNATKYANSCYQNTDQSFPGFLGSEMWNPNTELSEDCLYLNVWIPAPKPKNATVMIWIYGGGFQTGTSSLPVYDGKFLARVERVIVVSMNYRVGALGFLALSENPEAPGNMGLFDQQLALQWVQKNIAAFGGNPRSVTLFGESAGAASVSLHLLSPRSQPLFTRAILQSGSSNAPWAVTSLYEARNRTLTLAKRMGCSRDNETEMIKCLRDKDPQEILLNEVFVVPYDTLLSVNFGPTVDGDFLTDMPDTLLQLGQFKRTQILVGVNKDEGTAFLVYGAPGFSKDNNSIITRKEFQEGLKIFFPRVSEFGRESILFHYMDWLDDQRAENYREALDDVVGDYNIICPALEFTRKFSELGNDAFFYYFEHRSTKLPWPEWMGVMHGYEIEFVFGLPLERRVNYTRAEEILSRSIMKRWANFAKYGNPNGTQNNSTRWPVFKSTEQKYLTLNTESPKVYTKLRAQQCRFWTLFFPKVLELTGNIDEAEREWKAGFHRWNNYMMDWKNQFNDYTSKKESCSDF
OBSERVABLE: IC50 (nM)

chem_smiles=CN(C)c1ccc(C(=O)NCCCNc2c3c(nc4ccccc24)CCCC3)cc1 observable=IC50 unit_abbrev=nM endpoint_result=73.3
chem_smiles=CN(C)c1ccc(C(=O)NCCCCNc2c3c(nc4ccccc24)CCCC3)cc1 observable=IC50 unit_abbrev=nM endpoint_result=7
chem_smiles=CN(C)c1ccc(C(=O)NCCNc2c3c(nc4ccccc24)CCCC3)cc1 observable=IC50 unit_abbrev=nM endpoint_result=0.5
chem_smiles=CN(C)c1ccc(C(=O)NCCCCCCCNc2c3c(nc4ccccc24)CCCC3)cc1 observable=IC50 unit_abbrev=nM endpoint_result=210
chem_smiles=CN(C)c1ccc(C(=O)NCCCCCCCCNc2c3c(nc4ccccc24)CCCC3)cc1 observable=IC50 unit_abbrev=nM endpoint_result=0.7
chem_smiles=CN(C)c1ccc(C(=O)NCCCCCCCCCNc2c3c(nc4ccccc24)CCCC3)cc1 observable=IC50 unit_abbrev=nM endpoint_result=0.7
chem_smiles=CN(C)c1ccc(C(=O)NCCCCCNc2c3c(nc4ccccc24)CCCC3)cc1 observable=IC50 unit_abbrev=nM endpoint_result=3.7
chem_smiles=CN(C)c1ccc(C(=O)NCCCCCCNc2c3c(nc4ccccc24)CCCC3)cc1 observable=IC50 unit_abbrev=nM endpoint_result=1.1
